Biological target: T1, NBD (nonamer binding domain of RAG1) (mouse, UniProt P15919 384-461)
T1 sequence: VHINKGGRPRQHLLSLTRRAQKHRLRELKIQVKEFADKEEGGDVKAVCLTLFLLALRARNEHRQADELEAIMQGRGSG
Assay: EMSA; 5 mM Ca2+; NBD EMSA: 10 mM Tris-HCl pH 7.5, 33 mM KCl, 5 mM CaCl2, 2 mM DTT, 0.1 mg/ml BSA, 6% glycerol, 15 min 30 C; cRAG EMSA: 22.5 mM MOPS-KOH pH 7.0, 20% DMSO, 2.2 mM
Conditions: protein: recombinant; tags: N-terminal His6 (pET28a); label: 5' 32P
Quantity kind: binding result

As a guide, the following entries are already answered.
INSERT INTO results (binder, quantity_kind, value_measured) VALUES
  ('TTTTTTTTTTTTTTTTTTTTTT (ssDNA) [poly T 22 (MS100)]', 'binding result', 'no binding'),
  ('CTGTTAAGTTACTCGAAAAAAGCTCGCCCTCAGGTC (ssDNA) [XXXIII, ssDNA lacking T stretch]', 'binding result', 'no binding'),
  ('TTTTTTTTTTGAGTCGGATCTTACGTCGTAACTTCGCTAC (ssDNA) [XXXI, 10 T at 5'' end (MS22)]', 'binding result', 'binds'),
  ('poly T 75 (MS6) (ssDNA) DNA: TTTTTTTTTTTTTTTTTTTTTTTTTTTTTTTTTTTTTTTTTTTTTTTTTTTTTTTTTTTTTTTTTTTTTTTTTT', 'binding result', 'binds'),
  ('TTTTTTTTTT (ssDNA) [poly T 10 (MS103)]', 'binding result', 'no binding');

Below are some binders; for each one, tell me its binding result.
1. GAGTCTGATCTTACCTCTTATTTTTTTTTTTTTTT (ssDNA) [XXIX, 15 T at 3' end (MS16)]
2. GAGTCTGATCTTACCTCTTAACTTCTTTTTTTTTT (ssDNA) [XXVIII, 10 T at 3' end (MS14)]
3. GAGTCTGATCTTACCTCTTAACTTCGCTACTTTTT (ssDNA) [XXVII, 5 T at 3' end (MS12)]
4. TTTTTTTTTTTTTTTT (ssDNA) [poly T 16 (MS102)]

Resp:
1: binds; 2: binds; 3: binds; 4: no binding

Below are some binders; for each one, tell me its binding result.
1. GAGTCTGATCTTACCTTTTTTTTTTTTTTTTTTTT (ssDNA) [XXX, 20 T at 3' end (MS18)]
2. TTTTTTTTTTTTTTTTTTTTTTTTTTTT (ssDNA) [poly T 28 (MS101)]

Resp:
binds
binds
